Attribution: the supplement of paper PMC11208160

Protocol details: recombinant barcode read abundance after kanamycin selection (control-corrected) (log10(CPM+1)); higher = more efficient recombination; sequences stand for … in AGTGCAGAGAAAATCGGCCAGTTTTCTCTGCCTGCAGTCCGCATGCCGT…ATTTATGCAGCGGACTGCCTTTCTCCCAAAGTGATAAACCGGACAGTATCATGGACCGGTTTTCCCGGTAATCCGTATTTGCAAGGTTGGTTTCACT; site = the 11-nt target
// reported recombinant barcode read abundance (log10) per item
Give your answer as a number; write no unit.

GGGAGCCACTGGGTTCTAACCTGTTGCTGGT [GGGAGCCCTCA_LTGcore_AC_RTGcore_AC] (site GGGAGCCCTCA) (LTG core: AC, RTG core: AC) | 0.222

Record AGGCGGTTGTGGGTTCTAACCTGTTGCTTCA [AGGCGGTCTAA_LTGcore_TG_RTGcore_TG] (site AGGCGGTCTAA) (LTG core: TG, RTG core: TG) , field recombinant barcode read abundance (log10): 0.0951
